System: FMOC14 (patient-derived high-grade serous ovarian cancer cells)
ASSAY_PROCEDURE: drug sensitivity score (DSS3, normalised partial AUC of % inhibition dose-response) (DSS (score)); higher = more sensitive (stronger inhibition of viability); extreme values may be limits of the assay
PROTOCOL_CONDITIONS: 72 h; library: FO5A; assay format: 2D, 384-well, CellTiter-Glo
Recorded drug sensitivity score, one value per entry.
Answer with a bare number; do not write a unit.

Look over these answered cases.
# COMPOUND, ASSAYED_SYSTEM, drug sensitivity score
measured = [
    ("NCCNc1ccc(NCCN)c2c1C(=O)c1ccncc1C2=O", "FMOC14", 0),
    ("C[C@@H]1CN(C(=O)c2ccc(NC(=O)c3cc(O[C@H](C)c4c(Cl)ccc(F)c4Cl)c(N)nn3)cc2)C[C@H](C)N1", "FMOC14", 0),
    ("CNC(=O)c1cc(Oc2ccc(NC(=O)Nc3ccc(Cl)c(C(F)(F)F)c3)cc2)ccn1", "FMOC14", 0),
    ("C[C@]12CC[C@H](O)CC1=CC[C@@H]1[C@@H]2CC[C@]2(C)C(c3cccnc3)=CC[C@@H]12", "FMOC14", 2.3),
    ("Cn1cc(C2=Nc3cc(NC(=O)C(N)C4CCCCC4)cc4c3C2=CNNC4=O)cn1 (stereo not drawn)", "FMOC14", 6.8),
]

## Input Identify drug sensitivity score associated with the compound "CNc1ncc2cc(-c3cc(NC(=O)NCCC(C)(C)C)c(F)cc3C)c(C)nc2n1"
## Output 1.3

## Input Identify measured drug sensitivity score corresponding to "CN(C)CC#Cc1ccc(OCCCc2sc(N3CCc4cccc(C(=O)Nc5nc6ccccc6s5)c4C3)nc2C(=O)O)c(F)c1"
## Output 21.3

## Input Give the measured drug sensitivity score for "CCCC(CCC)C(=O)O"
## Output 0
